Below, each entry is listed with its recorded Survival (days) po.
Tested on: ANKA strain of P. berghei
Assay: single dose STI in vivo screen in infected mice
Parameters: species or system Plasmodium berghei
Details: single 10 mg/kg po in 3% ethanol and 7% Tween 80; untreated control 5.6 ± 0.3
Description: In the single dose STI in vivo screen, Moro SPF or NMRI mice infected with the ANKA strain of P. berghei (groups of 3-5 mice) were treated on day one post-infection with trioxolanes dissolved or suspended in 3% ethanol and 7% Tween 80. […] Antimalarial activity was measured by percent reduction in parasitemia on day three post-infection and survival times compared to an untreated control group. […]
Give just the numeric value; days need not be written.

Example results:
| MOLECULE | TGT | UNIT OF MEASUREMENT | Survival (days) po |
| --- | --- | --- | --- |
| N#CC1(c2ccccc2)CCC2(CC1)OOC1(O2)C2CC3CC(C2)CC1C3 (stereo not drawn) [OZ63] | ANKA strain of P. berghei | days | 7.3 |
| NCC1(c2ccccc2)CCC2(CC1)OOC1(O2)C2CC3CC(C2)CC1C3 (stereo not drawn) [OZ117] | ANKA strain of P. berghei | days | 7.0 |
| COC(=O)c1cn(C[C@H]2CC[C@]3(CC2)OOC2(O3)C3CC4CC(C3)CC2C4)cn1 (stereo partly drawn) [OZ224] | ANKA strain of P. berghei | days | 6.0 |
| CC(C)(C)CC(=O)N1CCC2(CC1)OOC1(O2)C2CC3CC(C2)CC1C3 (stereo not drawn) [OZ111] | ANKA strain of P. berghei | days | 7.7 |
| O=C(O)C1(c2ccccc2)CCC2(CC1)OOC1(O2)C2CC3CC(C2)CC1C3 (stereo not drawn) [OZ99] | ANKA strain of P. berghei | days | 6.3 |
| COC(=O)C1(c2ccccc2)CCC2(CC1)OOC1(O2)C2CC3CC(C2)CC1C3 (stereo not drawn) [OZ98] | ANKA strain of P. berghei | days | 6.3 |
| O=S(=O)(C[C@H]1CC[C@]2(CC1)OOC1(O2)C2CC3CC(C2)CC1C3)c1ccccc1 (stereo partly drawn) [OZ210] | ANKA strain of P. berghei | days | 9.3 |

Shift focus to the following entry.
The value of Survival (days) po recorded for O=C(O)c1cncn1C[C@H]1CC[C@]2(CC1)OOC1(O2)C2CC3CC(C2)CC1C3 (stereo partly drawn) [OZ231] when tested on ANKA strain of P. berghei reads 5.3

---

Test system: P. berghei ANKA strain
Experiment: treatment: 3x3 mg/kg and 3x1 mg/kg po divided doses in infected mice
Format: in vivo, Plasmodium berghei
Settings: 3 × 3 mg/kg days 1, 2, 3 post-infection
MEASUREMENT KIND: Survival (days) p.o. SSV
Give just the numeric value; days need not be written.

| COMPOUND | Survival (days) p.o. SSV |
| --- | --- |
| CS(=O)(=O)O.NC(=O)CCNCC1CCC2(CC1)OOC1(O2)C2CC3CC(C2)CC1C3 (stereo not drawn) [compound 319] | 11.2 |

The value of Survival (days) p.o. SSV recorded for CC(C)(N)CNC(=O)CC1CCC2(CC1)OOC1(O2)C2CC3CC(C2)CC1C3.Cc1ccc(S(=O)(=O)O)cc1 (stereo not drawn) [compound 277] when tested on P. berghei ANKA strain reads 14

The value of Survival (days) p.o. SSV recorded for C[C@H]1[C@H](OC(=O)CCC(=O)O)O[C@@H]2O[C@@]3(C)CC[C@H]4[C@H](C)CC[C@@H]1[C@@]24OO3 [AS, artesunate, reference compound] when tested on P. berghei ANKA strain reads 9.4

The value of Survival (days) p.o. SSV recorded for NC1(C(=O)NCC2CCC3(CC2)OOC2(O3)C3CC4CC(C3)CC2C4)CCCC1 (stereo not drawn) [compound 317] when tested on P. berghei ANKA strain reads 16.8

The value of Survival (days) p.o. SSV recorded for CS(=O)(=O)O.O=C(O)CNCC1CCC2(CC1)OOC1(O2)C2CC3CC(C2)CC1C3 (stereo not drawn) [compound 309] when tested on P. berghei ANKA strain reads 9.2

The value of Survival (days) p.o. SSV recorded for NS(=O)(=O)c1ccc(NCC2CCC3(CC2)OOC2(O3)C3CC4CC(C3)CC2C4)cc1 (stereo not drawn) [compound 298] when tested on P. berghei ANKA strain reads 16.4

The value of Survival (days) p.o. SSV recorded for O=c1ccn(CC2CCC3(CC2)OOC2(O3)C3CC4CC(C3)CC2C4)cc1 (stereo not drawn) [compound 302] when tested on P. berghei ANKA strain reads 13.4

The value of Survival (days) p.o. SSV recorded for Cc1ccc(S(=O)(=O)O)cc1.NC1CCC(NC(=O)CC2CCC3(CC2)OOC2(O3)C3CC4CC(C3)CC2C4)CC1 (stereo not drawn) [compound 315] when tested on P. berghei ANKA strain reads 22

The value of Survival (days) p.o. SSV recorded for CS(=O)(=O)O.c1cc(OCC2CCC3(CC2)OOC2(O3)C3CC4CC(C3)CC2C4)ccn1 (stereo not drawn) [compound 301] when tested on P. berghei ANKA strain reads 23

The value of Survival (days) p.o. SSV recorded for CS(=O)(=O)O.NCCOc1ccc(C2CCC3(CC2)OOC2(O3)C3CC4CC(C3)CC2C4)cc1 (stereo not drawn) [compound 323] when tested on P. berghei ANKA strain reads 14.4
